biological target: UniProtKB Q6SZW1; assay: biochemical; conditions: SAM-TIR lysate 5 μg/mL, 2 hr pre-incubation, 5 μM NAD+, RapidFire MS
Sequence (Q6SZW1 409-724): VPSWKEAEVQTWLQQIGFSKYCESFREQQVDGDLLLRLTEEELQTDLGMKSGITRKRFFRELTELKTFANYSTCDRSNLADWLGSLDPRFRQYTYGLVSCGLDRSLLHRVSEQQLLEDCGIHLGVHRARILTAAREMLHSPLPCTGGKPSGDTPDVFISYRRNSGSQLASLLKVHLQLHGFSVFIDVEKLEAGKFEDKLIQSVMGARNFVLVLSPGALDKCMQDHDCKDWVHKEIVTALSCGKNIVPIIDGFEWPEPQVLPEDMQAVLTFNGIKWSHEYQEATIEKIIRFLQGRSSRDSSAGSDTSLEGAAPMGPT

| COMPOUND | IC50 |
| --- | --- |
| Clc1ncc(Br)c2ccncc12 [Example 81] | > 30 µM |
| Oc1cncc2ccccc12 [Example 59] | 15 to 30 µM |
| Nc1cncc2ccccc12 [Example 63] | 5 to 15 µM |
| CNc1nccc2c(Br)cccc12 [Example 27] | > 30 µM |
| OCc1cccc2cnccc12 [Example 45] | < 5 µM |
| Cc1nccc2c(Br)c[nH]c(=O)c12 [Example 76] | 15 to 30 µM |
| c1cc2ccncc2cn1 [Example 36] | 15 to 30 µM |

Each recorded value in this set is attributed to patent US12338238B2.
